assay: Human liver microsome (HLM) metabolic stability assay; format: in vitro ADME; details: human liver microsomes
ASSAY_METRIC: Metabolic stability (Qh %), % hepatic blood flow

[
  {
    "COMPOUND": "COC[C@H]1N(c2nc(-c3cccc(C)c3OCc3cc(C)c4c(c3)CCN(C3COC3)C4)cs2)C[C@@H]2C[C@@]21C(=O)O [Compound 161]",
    "RESULT": "<24%"
  },
  {
    "COMPOUND": "CO[C@@H]1CN(c2cccc(-c3cc(C)ccc3OCc3ccc4c(c3C)CCN(C3CCOCC3)C4)n2)CC[C@@H]1C(=O)O [Compound 75]",
    "RESULT": "<24%"
  },
  {
    "COMPOUND": "COC[C@H]1N(c2cccc(-c3cccc(C)c3OCc3ccc4c(c3C)CN(C3CCOCC3)C4)n2)C[C@@H]2C[C@@]21C(=O)O [Compound 223]",
    "RESULT": "<24%"
  },
  {
    "COMPOUND": "Cc1ccc(OCc2ccc3c(c2C)CCN(C2CCCOC2)CC3)c(-c2csc(N3CC[C@@]4(C(=O)O)C[C@H]4C3)n2)c1 (stereo partly shown) [Compound 134]",
    "RESULT": "53%"
  },
  {
    "COMPOUND": "CCO[C@@H]1CN(c2cccc(-c3cc(C)ccc3OCc3ccc4c(c3C)CCN(C3CCOCC3)CC4)n2)CC[C@@H]1C(=O)O [Compound 240]",
    "RESULT": "73%"
  }
]

Query: Metabolic stability (Qh %), % hepatic blood flow; subject: CO[C@H]1CN(c2cccc(-c3cccc(C)c3OCc3cc(F)c4c(c3)CCN(C3CCOCC3)CC4)n2)CC[C@H]1C(=O)O [Compound 273]
<24%

Query: Metabolic stability (Qh %), % hepatic blood flow; subject: CO[C@H]1CN(c2nc(-c3cccc(Cl)c3OCc3ccc4c(c3)[C@H](C)CN(C3CCOCC3)CC4)cs2)CC[C@H]1C(=O)O [Compound 320]
26%

Query: Metabolic stability (Qh %), % hepatic blood flow; subject: Cc1cc(COc2c(C)cccc2-c2csc(N3CC[C@@]4(C(=O)O)C[C@H]4C3)n2)c(C)c2c1CN(C1CCOC1)CC2 (stereo partly shown) [Compound 100]
55%

Query: Metabolic stability (Qh %), % hepatic blood flow; subject: Cc1ccc(OCc2ccc3c(c2C)CCN(C2CCOC2)C3)c(-c2csc(N3CC[C@@]4(C(=O)O)C[C@H]4C3)n2)c1 (stereo partly shown) [Compound 119]
<24%

Query: Metabolic stability (Qh %), % hepatic blood flow; subject: CO[C@@H]1CN(c2cccc(-c3cccc(C)c3OCc3ccc4c(c3C)CCN(C3COC3)C4)n2)CC[C@@H]1C(=O)O [Compound 69]
<24%

----------
assay: physchem; conditions: pH 4.5, aqueous buffer, kinetic from dmso stock, Solubility (pH 4.5)
ASSAY_METRIC: solubility at 24 h (µg/mL)

[
  {
    "COMPOUND": "CO[C@@H]1CN(c2cccc(-c3cc(C)ccc3OCc3cc(C)c4c(c3)CCN(C3CCOC3)C4)n2)CC[C@@H]1C(=O)O (stereo partly shown) [Compound 77]",
    "solubility at 24 h [µg/mL]": 95
  }
]

I. Cc1ccc(OCc2ccc3c(c2)CCN(C2CCOCC2)C3)c(-c2csc(N3CC[C@@]4(C(=O)O)C[C@H]4C3)n2)c1 [Compound 110]
II. COC[C@H]1N(c2cccc(-c3cccc(C(F)(F)F)c3OCc3cc(C)c4c(c3)CCN(C3CCOCC3)C4)n2)C[C@@H]2C[C@@]21C(=O)O [Compound 220]
III. Cc1ccc(OCc2ccc3c(c2C)CCN(C2CCOCC2)C3)c(-c2csc(N3CC[C@@]4(C(=O)O)C[C@H]4C3)n2)c1 [Compound 115]
IV. Cc1ccc(OCc2ccc3c(c2C)CCN(C2CCOCC2)CC3)c(-c2csc(N3CC[C@@]4(C(=O)O)C[C@H]4C3)n2)c1 [Compound 130]
Please put the entries in order of rising solubility at 24 h. // respond by listing labels in the order requested
IV, III, I, II

P. CCO[C@@H]1CN(c2nc(-c3cccc(C)c3OCc3cc(C)c4c(c3F)CCN(C3CCOCC3)C4)cs2)CC[C@@H]1C(=O)O [Compound 241]
Q. Cc1ccc(OCc2ccc3c(c2)CCN(C2COC2)CC3)c(-c2csc(N3C[C@@H]4C[C@]4(C(=O)O)C3)n2)c1 [Compound 148]
R. CO[C@H]1CN(c2nc(-c3cc(C)ccc3OCc3cc(C)c4c(c3C)CCN(C3CCOCC3)C4)cs2)CC[C@H]1C(=O)O [Compound 181]
Hey, quick one: sort these by solubility at 24 h, largest value first please. // respond by listing labels in the order requested
P, R, Q

----------
Assay: Human liver microsome (HLM) metabolic stability assay
Assay type: in vitro ADME
Settings: human liver microsomes
Description: The 5 time point, high-throughput human liver microsome (HLM) metabolic stability assay is designed to determine in vitro compound metabolism. Compounds are incubated with HLMs at a concentration of 1 uM, at 37° C., for a total of 60 min. The percent of compound remaining at 5, 15, 30, and 60 min is used to calculate the t1/2 (min), CLint (mL/min/kg), CLh (mL/min/kg), and % Qh. […] The plates are analyzed using LC/MS/MS with electron spray ionization (ESI) and the previously determined MRM transitions. […]
The molecules listed here are annotated with their Metabolic stability (Qh %), % hepatic blood flow.

Use these answered entries as a reference point.
[
  {
    "MOLECULE": "CO[C@H]1CN(c2nc(-c3cc(C)ccc3OCc3cc(C)c4c(c3)CCN(C3CCOCC3)C4)cs2)CC[C@H]1C(=O)O",
    "RESULT": "<24%"
  },
  {
    "MOLECULE": "COC[C@H]1N(c2cccc(-c3cccc(F)c3OCc3cc(C)c4c(c3)CCN(C3CCOCC3)C4)n2)C[C@@H]2C[C@@]21C(=O)O",
    "RESULT": "<24%"
  },
  {
    "MOLECULE": "Cc1ccc(OCc2cc(C)c3c(c2)CCN(C2CCOCC2)C3)c(-c2csc(N3CC[C@@]4(C(=O)O)C[C@H]4C3)n2)c1",
    "RESULT": "<24%"
  },
  {
    "MOLECULE": "Cc1ccc(OCc2ccc3c(c2)CCN(CC2COCCO2)C3)c(-c2csc(N3CC[C@@]4(C(=O)O)C[C@H]4C3)n2)c1 (stereo partly drawn)",
    "RESULT": "<24%"
  },
  {
    "MOLECULE": "CCO[C@H]1CN(c2nc(-c3cccc(C)c3OCc3cc4c(c(OC)c3)CN(C3CCOCC3)CC4)cs2)CC[C@H]1C(=O)O",
    "RESULT": "<24%"
  }
]

Query: Metabolic stability (Qh %), % hepatic blood flow; subject: Cc1cccc(-c2cccc(N3C[C@@H]4C[C@]4(C(=O)O)C3)n2)c1OCc1ccc2c(c1C)CCN(C1COC1)CC2
<24%

----------
assay: physchem; conditions: pH 6.8, aqueous buffer, kinetic from dmso stock, Solubility (pH 6.8)
ASSAY_METRIC: solubility at 24 h (µg/mL)

[
  {
    "COMPOUND": "Cc1cccc(-c2csc(N3C[C@@H]4C[C@]4(C(=O)O)C3)n2)c1OCc1ccc2c(c1C)CCN(C1CCOCC1)CC2 [Compound 144]",
    "RESULT_NUMBER": 62
  },
  {
    "COMPOUND": "COC[C@H]1N(c2cccc(-c3cccc(C)c3OCc3cc(C)c4c(c3)CCN(C3CCOC3)C4)n2)C[C@@H]2C[C@@]21C(=O)O (stereo partly drawn) [Compound 50]",
    "RESULT_NUMBER": 77
  },
  {
    "COMPOUND": "Cc1cccc(-c2csc(N3C[C@H]4C[C@@]4(C(=O)O)[C@@H]3C)n2)c1OCc1ccc2c(c1C)CCN(C1CCOCC1)C2 [Compound 155]",
    "RESULT_NUMBER": 61
  }
]

A. Cc1ccc(OCc2ccc3c(c2)CCN(C2COC2)CC3)c(-c2csc(N3C[C@@H]4C[C@]4(C(=O)O)C3)n2)c1 [Compound 148]
B. Cc1cccc(-c2csc(N3C[C@@H]4C[C@]4(C(=O)O)C3)n2)c1OCc1cc(C#N)c2c(c1)CCN(C1CCOCC1)C2 [Compound 142]
C. Cc1cc(COc2c(C)cccc2-c2csc(N3CC[C@@]4(C(=O)O)C[C@H]4C3)n2)c(C)c2c1CN(CC1COCCO1)CC2 (stereo partly drawn) [Compound 98]
Please put the entries in order of rising solubility at 24 h. // respond by listing labels in the order requested
A, C, B
(A: 1.1 µg/mL, C: 31 µg/mL, B: 69 µg/mL)

----------
test: physchem; settings: pH 6.8, aqueous buffer, kinetic from dmso stock, Solubility (pH 6.8)
ASSAY_METRIC: solubility at 24 h (µg/mL)

Use these answered entries as a reference point.
[
  {
    "COMPOUND": "Cc1ccc(OCc2ccc3c(c2C)CCN(C2CCCOC2)CC3)c(-c2csc(N3CC[C@@]4(C(=O)O)C[C@H]4C3)n2)c1 (stereo partly shown)",
    "ASSAY_METRIC": "solubility at 24 h",
    "UNIT_SYMBOL": "µg/mL",
    "RESULT_NUMBER": 0.95
  },
  {
    "COMPOUND": "CO[C@H]1CN(c2nc(-c3cccc(Cl)c3OCc3ccc4c(c3)[C@H](C)CN(C3CCOCC3)CC4)cs2)CC[C@H]1C(=O)O",
    "ASSAY_METRIC": "solubility at 24 h",
    "UNIT_SYMBOL": "µg/mL",
    "RESULT_NUMBER": 46.4
  },
  {
    "COMPOUND": "COC[C@H]1N(c2cccc(-c3cccc(C)c3OCc3ccc4c(n3)CCN(C3CCOCC3)C4)n2)C[C@@H]2C[C@@]21C(=O)O",
    "ASSAY_METRIC": "solubility at 24 h",
    "UNIT_SYMBOL": "µg/mL",
    "RESULT_NUMBER": 73.7
  },
  {
    "COMPOUND": "CO[C@@H]1CN(c2nc(-c3cc(F)cc(C)c3OCc3ccc4c(c3C)CCN(C3CCOCC3)CC4)cs2)CC[C@@H]1C(=O)O",
    "ASSAY_METRIC": "solubility at 24 h",
    "UNIT_SYMBOL": "µg/mL",
    "RESULT_NUMBER": 68
  },
  {
    "COMPOUND": "COCc1cc(COc2c(C)cccc2-c2cccc(N3CC[C@H](C(=O)O)[C@H](OC)C3)n2)cc2c1CN(C1CCOCC1)CC2",
    "ASSAY_METRIC": "solubility at 24 h",
    "UNIT_SYMBOL": "µg/mL",
    "RESULT_NUMBER": 88.5
  }
]

1. CO[C@H]1CN(c2nc(-c3cccc(C)c3OCc3ccc4c(c3)[C@H](C)CN(C3CCOCC3)CC4)cs2)CC[C@H]1C(=O)O
2. Cc1ccc(OCc2ccc3c(c2C)CCN(C2COC2)CC3)c(-c2csc(N3C[C@@H]4C[C@]4(C(=O)O)C3)n2)c1
3. CO[C@H]1CN(c2cccc(-c3cccc(C)c3OCc3ccc4c(c3)CCN(C3CCOCC3)C4)n2)CC[C@H]1C(=O)O
4. Cc1ccc(OCc2ccc3c(c2C)CCN(C2CCOCC2)C3)c(-c2cccc(N3C[C@@H]4C[C@]4(C(=O)O)C3)n2)c1
Hey, quick one: sort these by solubility at 24 h, largest value first please. // respond by listing labels in the order requested
1, 3, 2, 4
(1: 133 µg/mL, 3: 69 µg/mL, 2: 35 µg/mL, 4: 6.4 µg/mL)

a. CO[C@@H]1CN(c2cccc(-c3cc(C)ccc3OCc3ccc4c(c3)CCN(C3CCOCC3)C4)n2)CC[C@@H]1C(=O)O
b. COC[C@@H]1N(c2cccc(-c3cccc(C)c3OCc3cc(C)c4c(c3)CCN(C3CCOCC3)C4)n2)C[C@H]2C[C@]21C(=O)O
Of a and b , which one carries the higher reported solubility at 24 h? Answer format: the label of the selected item.
b
(b: 130 µg/mL, a: 80 µg/mL)

A. CO[C@H]1CN(c2nc(-c3cccc(C)c3OCc3ccc4c(c3)C(C)(C)CN(C3CCOCC3)CC4)cs2)CC[C@H]1C(=O)O
B. Cc1ccc(OCc2ccc3c(c2C)CCN(C2CCOCC2)C3=O)c(-c2cccc(N3CC[C@@]4(C(=O)O)C[C@H]4C3)n2)c1
Input pair: A , B . Output: entry with lower solubility at 24 h. Answer format: the label of the selected item.
B
